- System: UACC-257 melanoma
- ASSAY_TEXT: NCI-60 one-dose screen, 48 h (100 = growth as untreated, 0 = no growth, -100 = all killed)
- EXPERIMENTAL_SETUP: 10 µM unless noted
About 83,000 compounds went through this panel and 20% of them were active in at least one assay; those are over-represented in the sample as a whole.
Consider the cut-off 90%. If the recorded growth is strictly smaller, the label is met; if not, the label is not met.

MOLECULE	TESTED_SYSTEM	CATEGORY
O=C(Nc1ccccc1)C(CCCCN1C(=O)c2ccccc2C1=O)N1C(=O)c2ccccc2C1=O (stereo not drawn)	UACC-257 melanoma	not met
CCOCC(O)(c1ccc(Cl)cc1)c1ccc(Cl)cc1	UACC-257 melanoma	not met
COc1ccc(C2=NN(C=O)C(c3ccc(OS(=O)(=O)c4ccc(C)cc4)c(OC)c3)C2)cc1 (stereo not drawn)	UACC-257 melanoma	met

# strict comparison: is reported growth < 90%? input = CC(=O)c1cc(C(=O)c2ccc3c(c2)Sc2ccccc2N3)c2c(C)cccn12
met

Try this molecule too: COc1c(B(O)O)cccc1-c1nc2c(F)cc3n[nH]c(C)c3c2c2c1CCCC2
met

Also O=C1Cc2c([nH]c3ccc([N+](=O)[O-])cc23)-c2ccccc2N1 , if possible.
met

Okay, and SCc1ccc(CS)cc1 ?
not met

// next record c1ccc2c(Cc3csc4ccccc34)csc2c1
not met

###

Can you tell me growth for the items I'm about to list?
- Test system: OVCAR-4 ovarian
- ASSAY_TEXT: NCI-60 one-dose screen, 48 h (100 = growth as untreated, 0 = no growth, -100 = all killed)
- EXPERIMENTAL_SETUP: 10 µM unless noted
Compounds without any hit were thinned out: in the full panel of roughly 83,000, 20% have a hit.
Give bare numbers, in %.

Past entries and their recorded results:
COMPOUND	TESTED_SYSTEM	growth (%)
CC1CN(CCCOC(=O)Nc2ccc(Cl)cc2)CCN1C(C)(C)C (stereo not given)	OVCAR-4 ovarian	111
Cc1ccc(NC(=O)c2[nH]c(SCCN(C)C)nc2-c2ccc(F)cc2)cc1C#Cc1cnc2cccnn12	OVCAR-4 ovarian	-59.2
CC(C)NCCCCCNc1cc(O)cc2cccnc12	OVCAR-4 ovarian	-5.19
CC(=O)c1cccc(Nc2ncnc3ccc(NC(=O)c4ccco4)cc23)c1	OVCAR-4 ovarian	89

Next:
Would you kindly share the measured growth for c1ccc(C(Nc2ccccn2)(c2ccccc2)c2ccccc2)cc1 ?
79.9

###

- Test system: HCT-15 colon
- ASSAY_TEXT: NCI-60 one-dose screen, 48 h (100 = growth as untreated, 0 = no growth, -100 = all killed)
- EXPERIMENTAL_SETUP: 10 µM unless noted
Compounds without any hit were thinned out: in the full panel of roughly 83,000, 20% have a hit.
READOUT_KIND: growth (%)
Answers are plain numbers, in %.

Check out these entries, answers already filled in.
MOLECULE	UNIT_STRING	growth
CN1CCN(Cc2ccc(NC(=O)c3cncc(C#Cc4ccc(N)nc4)c3)cc2C(F)(F)F)CC1	%	7.71
O=C1C(Cl)=C(N/N=c2/[nH][nH]/c(=N/NC3=C(Cl)C(=O)c4ccccc4C3=O)c3ccccc23)C(=O)c2ccccc21	%	83.9
COc1ccc(/C=C/C(=O)c2ccc(NC(=O)CSc3nnc(-c4ccc(OC)cc4)n3-c3ccccc3)cc2)cc1	%	96.4
CC(CN1CCN(C)CC1)CN1c2ccccc2Sc2ccc(C(F)(F)F)cc21 (centres undefined)	%	6.79
CC(OC(=O)Nc1cccc(Cl)c1)C(=O)O (centres undefined)	%	104
Cc1nc2ccc(Nc3nc(NCCN4CCOCC4)nc(Nc4ccc(F)cc4)n3)cc2n1Cc1ccccc1	%	-0.585
O=C(/C=C/c1cc([N+](=O)[O-])ccc1Cl)c1ccccc1	%	110
C=CCOc1c(Br)cc(Br)cc1Br	%	62.9

// fetch HCT-15 colon growth for OC(c1cc2cc(Cl)ccc2c2cc(C(F)(F)F)ccc12)C1CCCCN1 (centres undefined)
-61.7

###

- Tested on: SK-OV-3 ovarian
- ASSAY_TEXT: NCI-60 one-dose screen, 48 h (100 = growth as untreated, 0 = no growth, -100 = all killed)
- EXPERIMENTAL_SETUP: 10 µM unless noted
Compounds without any hit were thinned out: in the full panel of roughly 83,000, 20% have a hit.
READOUT_KIND: growth (%)
One number for each entry, in %.

Worked cases, answers included:
COMPOUND	growth, %
COc1ccc(-c2nc(-c3cc(OC)cc(OC)c3)[nH]c2-c2ccc(OC)cc2)cc1	85.6
COc1cc2cc(C(=O)Nc3ccccc3)c(N)nc2cc1OC	23

Each compound below has a reported value. Please supply its growth.
1. Fc1ccc(-c2nnc(N3CCOCC3)c3ccccc23)cc1
2. COc1cc(/C=C2\C(=O)Nc3ccc(N(C)C)cc32)cc(OC)c1OC
3. O=C(/C=C/c1cccc([N+](=O)[O-])c1)c1ccc(Nc2nc(N3CCCCC3)nc(N3CCCCC3)n2)cc1
4. COc1ccc(Br)c2ccccc12
5. Cc1c(O)c(=O)n(-c2ccccc2)n1C
6. C=C(CN1CC=CCC1)[C@@H]1CC[C@]2(C(=O)OC)CC[C@]3(C)[C@H](CC[C@@H]4[C@@]5(C)CC[C@H](OC(C)=O)C(C)(C)[C@@H]5CC[C@]43C)[C@@H]12
7. CC(C)OC(=O)c1ccc([N+](=O)[O-])cc1
8. CCN1CCN(Cc2ccc(NC(=O)c3nc4ccc5[nH]ncc5c4c4c3CCCC4)cc2C(F)(F)F)CC1

1. 109
2. 45.5
3. 97.4
4. 115
5. 105
6. 103
7. 107
8. 91.7

Below is a list of compounds. For each, state its recorded growth.
1. CCC(C)C1NC(=O)c2nc(oc2-c2ccccc2)-c2csc(n2)-c2csc(n2)-c2nc(oc2C)-c2coc(n2)CNC(=O)C(C(C)CC)NC1=O (stereo unspecified)
2. O=[N+]([O-])c1ccccc1CN1CCCCC1
3. COc1cc(C)c2c(=O)c3c(oc2c1)C(=O)c1c(O)c(OC)cc(O)c1C3=O
4. CCN(CC)CCCC(C)Nc1cnc(C(=O)Nc2cc(C)cc3cccnc23)cn1 (stereo unspecified)
5. Clc1ccc(Nc2ncnc3c2sc2ncccc23)cc1
6. CCc1oc2ccccc2c1C(=O)c1cc(I)c(O)c(I)c1
7. O=C(Nc1ccc(OS(=O)(=O)c2ccc(F)cc2)cc1)C12CC3CC(CC(C3)C1)C2

1: -89.2; 2: 127; 3: 9.16; 4: 104; 5: 28.6; 6: 105; 7: 74.9

###

- Test system: CAKI-1 renal
- ASSAY_TEXT: NCI-60 one-dose screen, 48 h (100 = growth as untreated, 0 = no growth, -100 = all killed)
- EXPERIMENTAL_SETUP: 10 µM unless noted
This is part of a sample that, as a whole, favours compounds with a hit. Of some 83,000 tested, about 20% had one in any assay. Calls of active or inactive are those of the source. Rule for the calls: active = growth percent below 10; inactive = the rest.
READOUT_KIND: growth

# annotated cases, reported growth shown
COMPOUND	OBSERVED_VALUE
CC1(C)C2CCC(O)(C(=O)O)C1C2 (stereo not drawn)	94% (inactive)
CCOC(=O)c1ccc(NCCC(=O)O)cc1	109% (inactive)
O=C1/C(=C\c2cccn2C(=O)c2ccccc2)c2ccccc2N1c1c(Cl)cccc1Cl	87.8% (inactive)
C/C(=N\NC(=S)Nc1ccccc1)c1ccccn1	6.16% (active)
O=C(Nc1ccc(Br)cc1)Nc1ccccc1Cl	55.2% (inactive)

For every item below, please supply its growth.
1. C#CC[C@@H]1C[C@]2(C)[C@H]3CC[C@@H]4[C@H]5C(C(=C)C)CC[C@]5(C(=O)NCCN(CCN)CCN)CC[C@@]4(C)[C@]3(C)CC[C@H]2C(C)(C)[C@H]1OC(C)=O (stereo partly drawn)
2. CC(=O)c1c(O)c(C)c(O)c2c1OC1=CC(=O)/C(=C(/C)N)C(=O)C12C (stereo not drawn)
3. Cc1ccccc1CNc1ncnc2[nH]ncc12
4. O=C(CSc1ccc(Cl)cc1)Nc1ccc(-c2nc3ccccc3s2)c(Cl)c1
5. C=CCN(CCOC(=O)c1ccc([N+](=O)[O-])cc1)CCOC(=O)c1ccc([N+](=O)[O-])cc1

1. 56.3% (inactive)
2. 87.1% (inactive)
3. 69% (inactive)
4. 53.5% (inactive)
5. 86.1% (inactive)

###

- System: NCI-H460 lung
- ASSAY_TEXT: NCI-60 one-dose screen, 48 h
- EXPERIMENTAL_SETUP: 10 µM unless noted
This is part of a sample that, as a whole, favours compounds with a hit. Of some 83,000 tested, about 20% had one in any assay. Calls of active or inactive are those of the source. How the source made its calls: active means growth percent below 10; inactive means the rest.
Bench note: report the call from t = active, f = inactive

Before answering, review these 5 worked examples.
COMPOUND	CATEGORY
CN1CCN(Cc2ccc(NC(=O)c3cncc(C#Cc4ncc5ccccn45)c3)cc2C(F)(F)F)CC1	t
CCC(C)C1NC(=O)c2nc(oc2-c2ccccc2)-c2csc(n2)-c2csc(n2)-c2nc(oc2C)-c2coc(n2)CNC(=O)C(C(C)CC)NC1=O (centres undefined)	t
CC(C)(C)c1ccc(Cn2c(-c3nonc3N)nc3ccccc32)cc1	f
O=C(NNC(=S)Nc1ccccc1)c1ccc(Nc2ncnc3c2cnn3-c2cccc(Br)c2)cc1	f
C#CC[C@@H]1C[C@]2(C)[C@H]3CC[C@@H]4[C@H]5C(C(=C)C)CC[C@]5(C(=O)NCCCCCCCCN)CC[C@@]4(C)[C@]3(C)CC[C@H]2C(C)(C)[C@H]1OC(C)=O (some centres undefined)	f

# outcome recorded in this test, key = CCOCC(O)(c1ccc(Cl)cc1)c1ccc(Cl)cc1
f

Now consider Fc1ccc(-c2ccnc3nc(-c4ccncc4)nn23)cc1 and answer again.
f

Then what about the compound C=C1NC(=O)C(C(C)CC)NC(=O)C2CSCC(NC(=O)CCC(=O)O)C(=O)NC(Cc3ccccc3)C(=O)NC(C)C(=O)NC(CC(C)CC)C(=O)NC(C(=O)NC(Cc3ccccc3)C(=O)N3CCCC3C(=O)N2)C(C)OC(=O)C(CO)NC(=O)C(C(O)COC)N(C)C(=O)C(C(C)C)NC(=O)C(CC(C)CC)NC1=O (centres undefined) ?
t

Request: COc1ccc(NC(=O)/C=C/c2ccc(NC(=O)N3CCCC3)cc2)cn1
f

Then what about the compound O=c1c2sc3ccccc3c2nnn1-c1ccc(F)c(Cl)c1 ?
f

Here is the next compound: Cn1c(=O)c2c3c(oc2c2ccccc21)C(=O)c1ccccc1C3=O
f

Thanks! And CCN(CC)CCCC(C)Nc1cnc(C(=O)Nc2cccc3ccc(OC)nc23)cn1 (centres undefined) ?
t

Next: CC(=O)c1c(C)nc(-c2cc(C)cc(Cl)c2)nc1-c1cccc(Oc2ccccc2)c1
f

// same read-out, input: O=C(Nc1cccc(Cl)c1)Nc1cc(C(F)(F)F)ccc1Cl
t

Reference source for all entries: PubChem BioAssay (NCI)
